# measured-on: PI3Kβ (Homo sapiens, UniProt P42338)
# Sequence (P42338 whole entry): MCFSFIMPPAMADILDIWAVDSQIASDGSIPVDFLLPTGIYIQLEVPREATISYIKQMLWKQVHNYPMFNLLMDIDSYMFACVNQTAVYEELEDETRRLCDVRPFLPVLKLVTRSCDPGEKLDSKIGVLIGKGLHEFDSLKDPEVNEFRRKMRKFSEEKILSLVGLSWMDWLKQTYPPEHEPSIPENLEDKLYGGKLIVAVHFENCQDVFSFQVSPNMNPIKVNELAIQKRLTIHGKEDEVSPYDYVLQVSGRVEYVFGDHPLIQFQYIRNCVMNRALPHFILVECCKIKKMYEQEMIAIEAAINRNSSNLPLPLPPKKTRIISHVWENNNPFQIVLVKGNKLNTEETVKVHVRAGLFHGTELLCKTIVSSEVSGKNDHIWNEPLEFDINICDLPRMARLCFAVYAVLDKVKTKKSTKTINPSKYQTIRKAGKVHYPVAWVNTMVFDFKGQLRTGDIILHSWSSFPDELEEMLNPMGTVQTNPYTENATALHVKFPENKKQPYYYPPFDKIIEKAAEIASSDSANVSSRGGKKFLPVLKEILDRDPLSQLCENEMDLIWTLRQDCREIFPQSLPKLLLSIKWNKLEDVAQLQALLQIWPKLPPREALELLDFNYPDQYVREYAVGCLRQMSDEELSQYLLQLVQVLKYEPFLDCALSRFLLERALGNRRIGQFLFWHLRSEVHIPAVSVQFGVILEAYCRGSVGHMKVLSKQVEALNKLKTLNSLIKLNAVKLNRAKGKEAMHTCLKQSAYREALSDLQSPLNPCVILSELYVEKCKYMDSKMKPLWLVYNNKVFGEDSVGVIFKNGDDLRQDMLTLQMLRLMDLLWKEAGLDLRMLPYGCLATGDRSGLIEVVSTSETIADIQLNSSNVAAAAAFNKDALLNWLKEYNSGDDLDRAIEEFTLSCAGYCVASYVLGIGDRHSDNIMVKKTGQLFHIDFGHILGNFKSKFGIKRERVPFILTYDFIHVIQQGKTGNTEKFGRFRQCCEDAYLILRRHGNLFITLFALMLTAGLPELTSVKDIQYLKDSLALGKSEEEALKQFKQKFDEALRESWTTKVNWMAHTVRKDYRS
# Sequence (P27986 whole entry partner): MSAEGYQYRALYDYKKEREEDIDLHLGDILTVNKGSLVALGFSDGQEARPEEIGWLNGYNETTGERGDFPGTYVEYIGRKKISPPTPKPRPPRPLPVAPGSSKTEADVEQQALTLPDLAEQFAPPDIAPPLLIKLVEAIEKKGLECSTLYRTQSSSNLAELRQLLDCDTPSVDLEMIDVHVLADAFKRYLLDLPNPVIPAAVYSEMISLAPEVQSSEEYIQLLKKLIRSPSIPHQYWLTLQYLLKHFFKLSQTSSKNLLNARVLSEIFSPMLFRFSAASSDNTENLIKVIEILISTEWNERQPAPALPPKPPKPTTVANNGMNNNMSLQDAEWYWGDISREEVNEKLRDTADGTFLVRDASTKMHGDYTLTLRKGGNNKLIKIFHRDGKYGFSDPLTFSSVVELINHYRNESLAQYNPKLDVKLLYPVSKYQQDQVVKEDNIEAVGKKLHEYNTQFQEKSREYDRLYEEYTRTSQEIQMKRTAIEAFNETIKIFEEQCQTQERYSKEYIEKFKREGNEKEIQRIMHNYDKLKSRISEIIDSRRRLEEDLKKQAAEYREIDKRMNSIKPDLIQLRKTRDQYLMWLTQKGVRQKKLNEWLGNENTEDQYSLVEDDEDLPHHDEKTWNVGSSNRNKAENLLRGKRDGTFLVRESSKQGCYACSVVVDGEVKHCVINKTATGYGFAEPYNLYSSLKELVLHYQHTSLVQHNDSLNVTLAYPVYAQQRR
pIC50: −log10 of the molar value.
property-name: pIC50

chemical-smiles: CC(C)(C#N)c1ccc(-c2n[nH]c3cnc4ccc(-c5cnc6ccccc6c5)cc4c23)cc1
measured-on: PI3Kβ (Homo sapiens, UniProt P42338)
pIC50: < 7.30

Q: Entry CC(C)(C#N)c1ccc(-c2n[nH]c3cnc4ccc(-c5cccnc5)cc4c23)cc1 : reported pIC50 = ?
A: 7.30 to 7.46

###

# measured-on: PDGFRα(D842V) (Homo sapiens, UniProt P16234, D842V)
# Sequence (P16234 24-1089 D842V): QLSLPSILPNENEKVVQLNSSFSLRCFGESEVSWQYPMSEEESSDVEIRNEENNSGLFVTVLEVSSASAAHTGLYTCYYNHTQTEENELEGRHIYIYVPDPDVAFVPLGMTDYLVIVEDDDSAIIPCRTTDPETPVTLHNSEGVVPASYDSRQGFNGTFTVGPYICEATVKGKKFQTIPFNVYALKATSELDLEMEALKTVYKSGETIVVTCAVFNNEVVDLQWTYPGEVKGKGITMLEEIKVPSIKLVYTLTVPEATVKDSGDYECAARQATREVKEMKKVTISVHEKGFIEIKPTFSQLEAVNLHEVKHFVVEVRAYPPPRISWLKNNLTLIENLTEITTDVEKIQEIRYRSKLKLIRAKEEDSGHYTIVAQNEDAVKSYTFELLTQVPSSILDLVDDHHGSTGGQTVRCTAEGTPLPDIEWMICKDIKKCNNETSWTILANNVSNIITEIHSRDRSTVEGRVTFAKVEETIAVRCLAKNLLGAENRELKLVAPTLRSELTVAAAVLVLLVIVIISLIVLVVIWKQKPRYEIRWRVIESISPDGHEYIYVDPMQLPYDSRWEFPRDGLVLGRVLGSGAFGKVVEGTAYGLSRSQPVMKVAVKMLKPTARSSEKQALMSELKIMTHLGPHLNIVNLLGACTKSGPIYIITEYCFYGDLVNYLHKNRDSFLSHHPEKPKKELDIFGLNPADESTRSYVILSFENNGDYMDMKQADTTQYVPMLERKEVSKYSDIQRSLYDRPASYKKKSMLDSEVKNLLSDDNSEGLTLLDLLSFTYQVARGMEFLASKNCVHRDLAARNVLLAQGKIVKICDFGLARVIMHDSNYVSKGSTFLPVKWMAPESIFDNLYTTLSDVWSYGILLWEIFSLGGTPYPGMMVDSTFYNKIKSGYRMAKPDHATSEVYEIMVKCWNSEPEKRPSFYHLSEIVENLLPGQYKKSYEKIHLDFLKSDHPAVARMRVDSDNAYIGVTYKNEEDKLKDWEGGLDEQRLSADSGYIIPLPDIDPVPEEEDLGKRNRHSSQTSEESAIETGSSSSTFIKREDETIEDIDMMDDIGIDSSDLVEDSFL
# assay-summary: Radiometric HotSpot kinase assay, PDGFRα(D842V)
property-name: IC50

Before answering, review these 4 worked examples.
molecule: CC(C)(C#N)c1ccc(-c2n[nH]c3cnc4ccc(-c5ccccc5)cc4c23)cc1 [Compound 1125]
IC50: > 1000 nM

molecule: COc1ccc(-c2ccc3ncc4[nH]nc(-c5ccc(C(C)(C)C#N)cc5)c4c3c2)cn1 [Compound 1118]
IC50: > 1000 nM

molecule: COc1cccc(-c2ccc3ncc4[nH]nc(-c5ccc(C(C)(C)C#N)cc5)c4c3c2)c1 [Compound 1115]
IC50: > 1000 nM

molecule: CC(C)(C#N)c1ccc(-c2n[nH]c3cnc4ccc(-c5cccc(Cl)c5)cc4c23)cc1 [Compound 1113]
IC50: > 100 nM

# next molecule below
Q: Need IC50 of CC(C)(C#N)c1ccc(-c2n[nH]c3cnc4ccc(-c5ccc6ncccc6c5)cc4c23)cc1 [Compound 1110] , thanks.
A: > 100 nM

###

Recorded IC50, one value per entry.
# System: U-87 MG cells
# assay-summary: CellTiter-GLO cell proliferation assay, U-87 MG
# Format: cell-based
# run-conditions: Homo sapiens, preliminary experiments, no unit printed with the values (paragraph speaks of nM), read-out: mean concentration for 50% inhibition of U-87 MG cell proliferation
// note: answer is a bare numeric in nM

chemical-smiles: CC(C)(C#N)c1ccc(-c2n[nH]c3cnc4ccc(-c5cnc6ccccc6c5)cc4c23)cc1
measured-on: U-87 MG cells
IC50 / nM: 295

--- query ---
Q: Given the compound CC(C)(C#N)c1ccc(-c2n[nH]c3cnc4ccc(-c5cccnc5)cc4c23)cc1 , what is its reported IC50?
A: 470

###

# measured-on: TRKC (Homo sapiens, UniProt Q16288)
# Sequence (Q16288 32-839): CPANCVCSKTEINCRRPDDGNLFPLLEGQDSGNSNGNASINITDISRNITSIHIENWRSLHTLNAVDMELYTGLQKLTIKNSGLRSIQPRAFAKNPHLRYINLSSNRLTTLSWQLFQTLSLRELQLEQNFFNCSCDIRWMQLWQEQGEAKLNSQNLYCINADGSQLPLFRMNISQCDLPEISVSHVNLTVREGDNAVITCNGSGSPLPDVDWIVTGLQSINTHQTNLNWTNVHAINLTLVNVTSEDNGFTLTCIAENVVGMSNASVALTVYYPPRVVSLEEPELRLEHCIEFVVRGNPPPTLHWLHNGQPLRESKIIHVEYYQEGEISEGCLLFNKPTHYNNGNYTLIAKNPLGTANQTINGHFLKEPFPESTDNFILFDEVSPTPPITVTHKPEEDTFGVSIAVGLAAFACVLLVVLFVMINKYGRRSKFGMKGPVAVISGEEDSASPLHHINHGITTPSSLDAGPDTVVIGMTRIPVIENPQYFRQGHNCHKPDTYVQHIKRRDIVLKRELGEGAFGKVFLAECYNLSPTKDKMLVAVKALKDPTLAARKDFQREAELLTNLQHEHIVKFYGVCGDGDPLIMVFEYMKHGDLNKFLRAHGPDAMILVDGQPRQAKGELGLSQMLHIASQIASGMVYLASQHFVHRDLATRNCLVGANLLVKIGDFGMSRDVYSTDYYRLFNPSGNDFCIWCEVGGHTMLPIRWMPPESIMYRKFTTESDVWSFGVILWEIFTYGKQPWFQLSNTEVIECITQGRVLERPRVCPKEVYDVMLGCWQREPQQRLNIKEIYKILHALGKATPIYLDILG
# assay-summary: Radiometric HotSpot kinase assay, TRKC
# Type: biochemical
# run-conditions: 1 μM compound, 10 μM ATP
# Procedure: Kinase Profiling: The inhibitory activity of the PI3K inhibitor compounds of the invention against 250 protein kinases was determined via the radiometric HotSpot Kinase Profiling (Reaction Biology Corporation, Malvern, Pa.). Compounds were profiled at a final concentration of 1 μM compound against recombinant protein kinases in the presence of 10 μM ATP and data were expressed as percent inhibition. […]
property-name: inhibition at 1 µM

Would you please look over these solved cases?
chemical-smiles: CC(C)(C#N)c1ccc(-c2n[nH]c3cnc4ccc(-c5cccc(Cl)c5)cc4c23)cc1
inhibition at 1 µM: ≥ 70%
//
chemical-smiles: CC(C)(C#N)c1ccc(-c2n[nH]c3cnc4ccc(-c5cncnc5)cc4c23)cc1
inhibition at 1 µM: > 97%
//
chemical-smiles: COc1ccc(-c2ccc3ncc4[nH]nc(-c5ccc(C(C)(C)C#N)cc5)c4c3c2)cc1
inhibition at 1 µM: > 50%
//
chemical-smiles: CC(C)(C#N)c1ccc(-c2n[nH]c3cnc4ccc(-c5ccc(F)cc5)cc4c23)cc1
inhibition at 1 µM: ≥ 75%
//
chemical-smiles: CC(C)(C#N)c1ccc(-c2n[nH]c3cnc4ccc(-c5cccc(Nc6ccncc6)c5)cc4c23)cc1
inhibition at 1 µM: > 97%
//
chemical-smiles: Cc1cccc(-c2ccc3ncc4[nH]nc(-c5ccc(C(C)(C)C#N)cc5)c4c3c2)c1
inhibition at 1 µM: > 60%
//
chemical-smiles: CC(C)(C#N)c1ccc(-c2n[nH]c3cnc4ccc(-c5cc(F)cc(F)c5)cc4c23)cc1
inhibition at 1 µM: ≥ 75%
//
chemical-smiles: Cc1ccccc1-c1ccc2ncc3[nH]nc(-c4ccc(C(C)(C)C#N)cc4)c3c2c1
inhibition at 1 µM: > 60%
//
chemical-smiles: CC(C)(C#N)c1ccc(-c2n[nH]c3cnc4ccc(-c5ccccc5)cc4c23)cc1
inhibition at 1 µM: ≥ 75%
//
chemical-smiles: CC(C)(C#N)c1ccc(-c2n[nH]c3cnc4ccc(-c5ccc6ncccc6c5)cc4c23)cc1
inhibition at 1 µM: > 80%

Q: Would you mind telling me what inhibition at 1 µM value was observed for CC(C)(C#N)c1ccc(-c2n[nH]c3cnc4ccc(-c5cccnc5)cc4c23)cc1 ?
A: > 97%

Q: Bench note: what inhibition at 1 µM did COc1cccc(-c2ccc3ncc4[nH]nc(-c5ccc(C(C)(C)C#N)cc5)c4c3c2)c1 show?
A: > 60%

Q: GET /values?readout=inhibition at 1 µM&item= CC(C)(C#N)c1ccc(-c2n[nH]c3cnc4ccc(-c5ccn6ncnc6c5)cc4c23)cc1
A: > 97%
